These measurements were taken from PubChem BioAssay (NCI).

# Test system: UO-31 renal
# protocol-notes: NCI-60 one-dose screen, 48 h (100 = growth as untreated, 0 = no growth, -100 = all killed)
# measurement-parameters: 10 µM unless noted
# Method: Growth inhibition of the UO-31 human tumor cell line is measured as a screen for anti-cancer activity. Cells are grown in 96 well plates and exposed to the test compound for 48 hours. Compounds are tested at a single concentration, which is 10^-5 M for most compounds. The reported endpoint is percent growth (GI% or GIPRCNT), where numbers from 0 - 100% represent growth inhibition, and numbers from -100% - 0 represent cell death. For example, a value of 40 represents 60% growth inhibition. […]
This is part of a sample that, as a whole, favours compounds with a hit. Of some 83,000 tested, about 20% had one in any assay.
Binary call on growth with cut-off 50%: strictly below means Y, and equality or higher means N.

molecule | study-target | assigned-category
Cc1ccc(C2=NN(C)C(=O)C3(CCCC3)C2)cc1 | UO-31 renal | N
COc1ccc([C@H]2[C@H](O)C(=O)N2c2cc(OC)c(OC)c(OC)c2)cc1F | UO-31 renal | Y
CCOC(=O)C(=O)CC(=O)N1C(=S)NC(=O)C1CC(C)C (stereo not given) | UO-31 renal | N
CCCCCc1ccc(S(=O)(=O)Nc2cc(-c3csc(NC(=O)CN4CCN(C)CC4)n3)ccc2N2CCN(C)CC2)cc1 | UO-31 renal | Y
O=C(Nc1nc2ccc([N+](=O)[O-])cc2s1)Nc1ccccc1Cl | UO-31 renal | Y
O=C(c1ccc(Cl)cc1)C1[C@H](c2ccc(Cl)cc2)[C@@H](c2ccccc2)NC12C(=O)Nc1ccccc12 (stereo not given in full) | UO-31 renal | Y
CCOc1ccc(C(=O)Nc2ncc(Cc3ccc(F)cc3)s2)cc1 | UO-31 renal | Y
Cc1ccc2c(c1)C(=O)/C(=C/c1cccc(F)c1)S2 | UO-31 renal | N
Cc1ccc(-c2cc3nc(C(Cl)Cl)nc(C)n3n2)cc1 | UO-31 renal | N

* * *

# System: NCI-H226 lung
# protocol-notes: NCI-60 one-dose screen, 48 h
# measurement-parameters: 10 µM unless noted
Compounds without any hit were thinned out: in the full panel of roughly 83,000, 20% have a hit. Activity calls are given as the source filed them. Rule for the calls: active = growth percent below 10; inactive = the rest.
Possible outcomes: true (1) (active), false (0) (inactive)

compound | study-target | assigned-category
C#C[C@]1(O)CC[C@H]2[C@@H]3CC=C4c5sc(-c6ccc7c(c6)OCO7)nc5CC[C@]4(C)[C@H]3CC[C@@]21C | NCI-H226 lung | false (0)
O=C(c1ccc(O)c(C(=O)N2Cc3ccc(OCCC[P+](c4ccccc4)(c4ccccc4)c4ccccc4)cc3C2)c1)N1Cc2cccc(F)c2C1 | NCI-H226 lung | false (0)
O=C(CNc1nc(-c2cccc([N+](=O)[O-])c2)cs1)Nc1cccc([N+](=O)[O-])c1 | NCI-H226 lung | true (1)
CCc1ccc(SC2c3ccc(N(CC)CC)cc3Oc3nc(N)c(C#N)c(N)c32)cc1 (centres undefined) | NCI-H226 lung | true (1)
COc1cc2oc(-c3cccc(N)c3)cc(=O)c2c(OC)c1OC | NCI-H226 lung | false (0)
O=C(c1ccc(Cl)cc1)C1[C@H](c2ccc(Cl)cc2)[C@@H](c2ccccc2)NC12C(=O)Nc1ccccc12 (some centres undefined) | NCI-H226 lung | false (0)
CCNC(=O)N1CCc2cc(OC)c(OCCc3ccc(OC)nc3)cc2C1c1ccc(OC)cc1C (centres undefined) | NCI-H226 lung | false (0)
CNC(=O)c1cc(Oc2ccc3nc(NC(=O)c4cccc(OC(F)(F)F)c4)sc3c2)ccn1 | NCI-H226 lung | false (0)
CCCC(=O)NC(c1cccnc1)c1cc(C(C)(C)C)c2cccnc2c1O (centres undefined) | NCI-H226 lung | false (0)
